- Test system: Escherichia coli EC-1: VOGEL, mouse virulent
- Method summary: MIC determination, EC-1
- Assay type: cell-based
- Experimental setup: Escherichia coli, read-out: EC-1 (MIC), Table 3, lower of duplicate values
Measured quantity: MIC (µg/mL)

{"columns": ["Compound", "Measured quantity", "Unit", "Qualifier sign", "Reading"],
 "data": [
  ["COc1cccc(-c2cc(=O)n(CCC(C)(C(=O)NO)S(C)(=O)=O)cc2F)c1F (centres unmarked)", "MIC", "µg/mL", "=", 1],
  ["CC(CCn1cc(F)c(-c2cc[nH]n2)cc1=O)(C(=O)NO)S(C)(=O)=O (centres unmarked)", "MIC", "µg/mL", ">", 64],
  ["CC(CCn1cc(F)c(-c2cnc(N3CCCC3)nc2)cc1=O)(C(=O)NO)S(C)(=O)=O (centres unmarked)", "MIC", "µg/mL", "=", 32],
  ["CC(CCn1cc(F)c(-c2ccc3c(c2)CCO3)cc1=O)(C(=O)NO)S(C)(=O)=O (centres unmarked)", "MIC", "µg/mL", "=", 2],
  ["COc1cc(-c2cc(=O)n(CCC(C)(C(=O)NO)S(C)(=O)=O)cc2F)ccc1C#N (centres unmarked)", "MIC", "µg/mL", "=", 64],
  ["CC(CCn1cc(F)c(-c2cccc(F)c2)cc1=O)(C(=O)NO)S(C)(=O)=O (centres unmarked)", "MIC", "µg/mL", "=", 4],
  ["CC(CCn1cc(F)c(-c2cccc(F)c2F)cc1=O)(C(=O)NO)S(C)(=O)=O (centres unmarked)", "MIC", "µg/mL", "=", 2],
  ["CCOc1ccc(-c2cc(=O)n(CCC(C)(C(=O)NO)S(C)(=O)=O)cc2F)cc1 (centres unmarked)", "MIC", "µg/mL", "=", 0.25]
]}
